B1: CPEB3 Ribozyme (parent)
chain: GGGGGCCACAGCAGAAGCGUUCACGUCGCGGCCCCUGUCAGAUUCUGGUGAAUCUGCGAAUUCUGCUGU

variants of: B1; assay: self-cleavage, relative activity (ratio to wild type); higher = more cleavage; co-transcriptional
VALUE KIND: self-cleavage

- G11U U36C: 0.59
- A23G C29A: 0.401
- G4U G11A: 0.571
- G25C U55C: 0.107
- G11C: 0.872
- G30C G48C: 0.642
- G1U C54G: 0.099
- G2A U55G: 0.0739
- G5C G31U: 0.143
- C12U C27A: 0.419
- U43C G56C: 0.494
- U55A U64C: 0.479
- U43C G58U: 0.975
- G41C G58A: 0.772
- A51U A60U: 0.438
- A52G C54U: 1.02
- G5A C18U: 0.483
- G5C A8U: 0.156
- A13G U20G: 0.0546
- C7U U49C: 0.854
- A23C U67A: 0.988
- C18U C34A: 0.352
- G3U U64A: 0.128
- G37C A40C: 0.242
- A16C U55A: 0.153
- U36A G41U: 0.251
- A13C C29U: 0.0773
- U26A U43G: 0.707
- A13U A59G: 0.784
- G4C U26A: 0.125
- A52C C54U: 0.856
- G58A A60G: 0.83
- U43C U44C: 0.937
- U44A A59C: 0.638
- C18A C54G: 0.179
- A40G U46G: 0.977
- G30U G65C: 0.214
- G2C G3A: 0.055
